I'd appreciate it if you could supply chromatographic logP values for the items below.
assay: log P determination by HPLC (EEC Directive 79/831 Annex V.A8, reversed-phase C18); format: physicochemical; conditions: reversed-phase C18 HPLC column, C18, 43° C., 0.1% aqueous phosphoric acid/acetonitrile gradient
Answers are plain numbers.

compound	property name	readout value
Cc1ccc(C(C)N2CCSC2=NC#N)cc1 (stereo not shown)	chromatographic logP	3.06
CCc1ccc(C(C)N2CCSC2=NC#N)cc1 (stereo not shown)	chromatographic logP	2.09
CC(c1ccc(Cl)c(Cl)c1)N1CCSC1=NC#N (stereo not shown)	chromatographic logP	2.84
CC(c1ccc(Cl)c(Cl)c1)N1CCCO/C1=N\C#N (stereo not shown)	chromatographic logP	2.59
CC(c1ccc(Cl)cc1)N1CCCN/C1=N\C(N)=S (stereo not shown)	chromatographic logP	1.48
CC(c1ccc(Cl)cc1)N1CSCC/C1=N\C#N (stereo not shown)	chromatographic logP	2.63
CSc1ccc(Oc2cccc(CCN3CCSC3=NC#N)c2)cc1	chromatographic logP	3.29
CC(c1ccc(Cl)cc1)N1CCCN(C)C1=NC#N (stereo not shown)	chromatographic logP	2.23

Could you report chromatographic logP for every entry in the following list?
1. CC(c1ccc(Cl)cc1)N1OCCN(C)/C1=N\C#N (stereo not shown)
2. CC(=O)Oc1ccc(CCN2CCS/C2=N\C#N)cc1

[2.21, 1.89]

====

assay: log P determination by HPLC (EEC Directive 79/831 Annex V.A8, reversed-phase C18); format: physicochemical; details: reversed-phase C18 HPLC column, C18, 43° C., 0.1% aqueous phosphoric acid/acetonitrile gradient
property name: chromatographic logP
Answers are plain numbers.

Reference set (4 entries):
compound	chromatographic logP
CCC(c1ccc(Cl)cc1)N1CCS/C1=N\C#N (centres unmarked)	2.81
CSc1ccc(Oc2ccccc2CCN2CCS/C2=N\C#N)cc1	3.33
CC1CN/C(=N\C#N)N(C(C)c2ccc(Cl)cc2)C1 (centres unmarked)	2.65
CC(c1ccc(Cl)cc1)N1CCCN(C)/C1=N\C(N)=S (centres unmarked)	1.48

We next turn to a different compound, shown below.
Using the record for CC(c1ccc(Cl)cc1)N1CCN(C)C1=NC#N (centres unmarked) , report its chromatographic logP.
2.29

====

I'd appreciate it if you could supply Effect in % after 4 days values for the items below.
Tested on: Meloidogyne incognita egg/larvae
Test: Meloidogyne test (sand, lettuce, gall formation)
Format: in vivo
Conditions: 20 ppm; nematicidal action by gall formation on lettuce roots; 100% = no galls
Description: To prepare a suitable preparation of active compound, 1 part by weight of active compound is mixed with 30 parts by weight of dimethylformamide and 1 part by weight of emulsifier (alllylaryl polyglycol ether), and the concentrate is diluted with water to the desired concentration. […] After the period of time indicated in the table, the nematicidal action is determined in % using gall formation as a measure. […]
Numbers only, in %.

Reference set (6 entries):
molecule	tested target	Effect in % after 4 days, %
CCC(c1ccccc1Cl)N1CCSC1=NC#N (stereo not shown) [Example 4]	Meloidogyne incognita egg/larvae	100
CC(c1ccc(Cl)cc1)N1CCCC1=NC#N (stereo not shown) [Example 22]	Meloidogyne incognita egg/larvae	100
CC(c1ccc(Cl)cc1)N1CCN(C)C1=NC#N (stereo not shown) [Example 23]	Meloidogyne incognita egg/larvae	90
CC(c1ccc(Cl)cc1)N1CCNC1=NC#N (stereo not shown) [Example 1]	Meloidogyne incognita egg/larvae	98
CC(c1ccc(Cl)cc1)N1CCSC1=NC#N (stereo not shown) [Example 14]	Meloidogyne incognita egg/larvae	100
CC(c1ccc(Cl)cc1)N1CCCN(C)C1=NC#N (stereo not shown) [Example 28]	Meloidogyne incognita egg/larvae	95

We next turn to a different molecule, shown below.
Find the measured Effect in % after 4 days: item CC(c1ccccc1Cl)N1CCSC1=NC#N (stereo not shown) [Example 3] , target or system Meloidogyne incognita egg/larvae.
100

====

test: log P determination by HPLC (EEC Directive 79/831 Annex V.A8, reversed-phase C18); assay type: physicochemical; details: reversed-phase C18 HPLC column, C18, 43° C., 0.1% aqueous phosphoric acid/acetonitrile gradient
I'd appreciate it if you could supply chromatographic logP values for the items below.
Answers are plain numbers.

compound	property name	readout value
CC(c1ccc(Cl)cc1)N1COCC/C1=N\C#N (stereo not shown)	chromatographic logP	2.28
CC1CN(C)/C(=N\C#N)N(C(C)c2ccc(Cl)cc2)C1 (stereo not shown)	chromatographic logP	2.52
N#CN=C1SCCN1C(CF)c1ccc(Cl)cc1 (stereo not shown)	chromatographic logP	2.41

Could you report chromatographic logP for every entry in the following list?
1. CC(c1ccc(Cl)cc1)N1CC[S+]([O-])/C1=N\C#N (stereo not shown)
2. N#CN=C1SCCN1C1Cc2ccc(Cl)cc2C1 (stereo not shown)
3. CC(c1ccc(Cl)cc1Cl)N1CCCO/C1=N\C#N (stereo not shown)

[1.86, 2.68, 2.43]

Using the record for CC(C)c1ccc(C(C)N2CCSC2=NC#N)cc1 (stereo not shown) , report its chromatographic logP.
3.11
